All figures here come from patent US8044053B2.

We begin with a simple list: items and their reported % inh. 10^−7 M.
TARGET SYSTEM: CB1-receptor (UniProt P20272)
ASSAY NAME: In-vitro determination of affinity (binding) to CB1-receptors, radioligand [3H]-CP55940
Design: % inh; 10^−7 M; compound at 10^−7 M; species or system human or rat
MEASUREMENT PARAMETERS: compound at 10^−7 M
Give the value, in units of %, as a plain number.

Recorded results for 5 compounds are shown here.
1) O=S(=O)(NCC1=NN(c2ccc(Cl)cc2Cl)C(c2ccc(Cl)cc2)C1)c1ccccc1Cl (centres unmarked) [Example 23] :: 54.9
2) Cc1ccc(F)cc1S(=O)(=O)NCC1=NN(c2ccc(Cl)cc2Cl)C(c2ccc(Cl)cc2)C1 (centres unmarked) [Example 38] :: 74.0
3) CCc1ccc(S(=O)(=O)NCC2=NN(c3ccc(Cl)cc3Cl)C(c3ccc(Cl)cc3)C2)cc1 (centres unmarked) [Example 43] :: 26.7
4) Cc1cc(C)c(S(=O)(=O)NCC2=NN(c3ccc(Cl)cc3Cl)C(c3ccc(Cl)cc3)C2)c(C)c1 (centres unmarked) [Example 40] :: 51.9
5) O=S(=O)(NCC1=NN(c2ccc(Cl)cc2Cl)C(c2ccc(Cl)cc2)C1)c1cccc(Cl)c1 (centres unmarked) [Example 1] :: 27.1

(Q) Consider the compound CCCS(=O)(=O)NCC1=NN(c2ccc(Cl)cc2Cl)C(c2ccc(Cl)cc2)C1 (centres unmarked) [Example 21] and give its recorded % inh. 10^−7 M.
(A) 80.6

(Q) Consider the compound N#Cc1cccc(S(=O)(=O)NCC2=NN(c3ccc(Cl)cc3Cl)C(c3ccc(Cl)cc3)C2)c1 (centres unmarked) [Example 10] and give its recorded % inh. 10^−7 M.
(A) 48.6

(Q) Consider the compound O=S(=O)(NCC1=NN(c2ccc(Cl)cc2Cl)C(c2ccc(Cl)cc2)C1)c1csc2ccccc12 (centres unmarked) [Example 37] and give its recorded % inh. 10^−7 M.
(A) 27.2
